What growth was measured for each of the following?
Test system: SNB-75 CNS
Test: NCI-60 one-dose screen, 48 h (100 = growth as untreated, 0 = no growth, -100 = all killed)
Run Conditions: 10 µM unless noted
The panel holds about 83,000 compounds, 20% with a hit somewhere; the sample as a whole holds those more often. Calls of active or inactive are those of the source. How the source made its calls: active means growth percent below 10; inactive means the rest.

Some entries whose results are on file:
{"columns": ["Smiles Record", "growth"],
 "data": [
  ["O=Cc1ccc(F)cc1", "90.3% (inactive)"],
  ["CC(=O)c1cccc(N(C)S(=O)(=O)c2ccc(C)cc2)c1", "81.6% (inactive)"],
  ["Cc1c(Cl)cccc1NC(=S)NC(=O)c1ccccc1", "90.5% (inactive)"],
  ["O=Cc1ccc(O)c(O)c1", "87.2% (inactive)"]
]}

Provide reported growth for each item, in the same order as listed.
1. Cc1onc(-c2ccccc2Cl)c1C(=O)Cl
2. COc1cc(C(=O)N2CCN(c3ccccc3)CC2)c2ccccc2n1
3. O=C(Nc1ccccc1)c1ccco1

Found:
78.1% (inactive)
20.9% (inactive)
87% (inactive)

----------
What growth was measured for each of the following?
Tested on: SNB-75 CNS
Test: NCI-60 one-dose screen, 48 h (100 = growth as untreated, 0 = no growth, -100 = all killed)
Run Conditions: 10 µM unless noted
The panel holds about 83,000 compounds, 20% with a hit somewhere; the sample as a whole holds those more often.
Answers are plain numbers, in %.

Some entries whose results are on file:
{"columns": ["Compound", "Study System", "Output Unit", "growth"],
 "data": [
  ["COc1cc(C(=O)NC(=S)NCc2ccncc2)cc(OC)c1OC", "SNB-75 CNS", "%", 92.5],
  ["N=C(N)c1nn(C2OC(CO)C(O)C2O)c2nc[nH]c(=O)c12 (centres undefined)", "SNB-75 CNS", "%", 9.13],
  ["CCC1CCC(C)NC1 (centres undefined)", "SNB-75 CNS", "%", 88.6],
  ["ON1CCCC1", "SNB-75 CNS", "%", 83.2],
  ["O=C(O)Cc1ccccn1", "SNB-75 CNS", "%", 103],
  ["CCOP(=O)(NC(c1ccccc1)c1ccccc1)OCC", "SNB-75 CNS", "%", 88.7],
  ["CC(=O)c1cccs1", "SNB-75 CNS", "%", 96],
  ["CCCCOC(=O)c1ccc(NC(=O)CCl)cc1", "SNB-75 CNS", "%", 68.9],
  ["COC1OC(C(COC(C)=O)OC(C)=O)C(OC(C)=O)C(OC(C)=O)C1OC(C)=O (centres undefined)", "SNB-75 CNS", "%", 97.6],
  ["COc1ccc(Br)c2c1C(=O)CC2", "SNB-75 CNS", "%", 99.6]
]}

Provide reported growth for each item, in the same order as listed.
1. ClCC(Cl)C1CCC(Cl)C(Cl)C1 (centres undefined)
2. COc1ccc(Br)c(C=O)c1
3. CC(C)(CC(=O)O)CC(=O)O
4. CC(=O)OCC1CCC(COC(C)=O)CC1 (centres undefined)

Found:
89.6
54.8
90.2
87.4

----------
What growth was measured for each of the following?
Tested on: RXF 393 renal
Test: NCI-60 one-dose screen, 48 h (100 = growth as untreated, 0 = no growth, -100 = all killed)
Run Conditions: 10 µM unless noted
The panel holds about 83,000 compounds, 20% with a hit somewhere; the sample as a whole holds those more often.
One number for each entry, in %.

{"columns": ["Molecule", "Study System", "Measure", "Measured Value"],
 "data": [
  ["COc1ccc(Br)c(C=O)c1", "RXF 393 renal", "growth", 80.1],
  ["OCCNc1ccccc1", "RXF 393 renal", "growth", 109],
  ["c1ccc2[nH]c(Cc3nc4ccccc4[nH]3)nc2c1", "RXF 393 renal", "growth", 114],
  ["CCC(C)C1CCC(O)CC1 (stereo not drawn)", "RXF 393 renal", "growth", 108]
]}

Provide reported growth for each item, in the same order as listed.
1. CCOC(=O)C(=O)CC(=O)c1ccccc1
2. O=Cc1c(O)c2ccccc2[nH]c1=O
3. Oc1cccc(CNC2CCCCC2)c1

Found:
1. 103
2. 114
3. 114

----------
Test system: HCT-15 colon
Test: NCI-60 one-dose screen, 48 h
Run Conditions: 10 µM unless noted
This is part of a sample that, as a whole, favours compounds with a hit. Of some 83,000 tested, about 20% had one in any assay. Calls of active or inactive are those of the source. The calls were made as follows: active = growth percent below 10; inactive = the rest.
# output must be one of active, inactive

Example entries begin here.
{"columns": ["Compound", "Group"],
 "data": [
  ["CCOc1ccc(C(=O)NCC(C)C)cc1", "inactive"],
  ["CC(=O)CSc1ncnc2nc[nH]c12", "inactive"],
  ["COc1cc2c(c(OC)c1OC)-c1ccc(SC)c(=O)cc1[C@@H](NC1OC(CO)C(O)C(O)C1O)CC2 (stereo partly drawn)", "inactive"],
  ["C[C@H](CCC[C@H](C)OS(=O)(=O)c1ccccc1)OS(=O)(=O)c1ccccc1", "inactive"],
  ["OCCNc1ccccc1", "inactive"]
]}

Lookup: Assay outcome for CC(C)OCC(CCl)OC(=O)Nc1ccccc1 (stereo not drawn) : what was it?
Found: inactive

Lookup: Assay outcome for Oc1ccc2ccccc2c1CN1CCOCC1 : what was it?
Found: inactive

----------
Test system: RXF 393 renal
Test: NCI-60 one-dose screen, 48 h (100 = growth as untreated, 0 = no growth, -100 = all killed)
Run Conditions: 10 µM unless noted
The panel holds about 83,000 compounds, 20% with a hit somewhere; the sample as a whole holds those more often. Activity calls are given as the source filed them. Rule for the calls: active = growth percent below 10; inactive = the rest.
What growth was measured for each of the following?

{"columns": ["Molecule", "growth"],
 "data": [
  ["CCCC1OC(c2ccco2)OCC1CC (centres undefined)", "136% (inactive)"],
  ["CN(C)CCOC(=O)Nc1ccc(Cc2ccc(NC(=O)OCCN(C)C)cc2)cc1", "32.2% [100 µM] (inactive)"],
  ["O=Cc1ccc(F)cc1", "86.9% (inactive)"],
  ["CN1CCN(C(=S)S)CC1", "130% (inactive)"],
  ["Nc1nc(Cl)cc(Cl)n1", "102% (inactive)"],
  ["COC1OC(C(O)C(O)CO)C(O)C(O)C1O (centres undefined)", "98% (inactive)"],
  ["Cn1c(=O)c2[nH]c(CCCCC(=O)O)nc2n(C)c1=O", "127% (inactive)"],
  ["Cc1cc(=O)n(Nc2ccccc2)c(O)c1C#N", "124% (inactive)"]
]}

Provide reported growth for each item, in the same order as listed.
1. C=CC(=O)OC1CCC(C(C)(C)CC)CC1 (centres undefined)
2. O=C(O)c1cccc(-n2ncc(Cl)c(Cl)c2=O)c1
3. CCCC(OC(C)=O)c1ccc2c(c1)OCO2 (centres undefined)

Found:
1. 113% (inactive)
2. 118% (inactive)
3. 104% (inactive)

Provide reported growth for each item, in the same order as listed.
1. CCOc1ccncc1[N+](=O)[O-]
2. CC(=O)/C(C)=N\OC(=O)Nc1ccccc1
3. CCN(CC)CCCC(C)NC(=S)N/N=C(\C)c1ccccn1 (centres undefined)

Found:
113% (inactive)
125% (inactive)
49.4% (inactive)

----------
Test system: CCRF-CEM leukemia
Test: NCI-60 one-dose screen, 48 h
Run Conditions: 10 µM unless noted
This is part of a sample that, as a whole, favours compounds with a hit. Of some 83,000 tested, about 20% had one in any assay. Calls of active or inactive are those of the source. The calls were made as follows: active = growth percent below 10; inactive = the rest.
# output must be one of Y for active, N for inactive

Example entries begin here.
{"columns": ["Compound", "Group"],
 "data": [
  ["Nc1cc(N)ncn1", "N"],
  ["CC(=O)NCNC(C)=O", "N"],
  ["CC1(C)CCC(C)(C)NC(=S)N1", "N"]
]}

Lookup: Assay outcome for CCC(=O)C1C(=O)c2ccccc2C1=O : what was it?
Found: N

Lookup: Assay outcome for Cc1ccc([N+](=O)[O-])c(C)n1 : what was it?
Found: N

Lookup: Assay outcome for CC(=O)Nc1ncc(S(=O)(=O)c2ccc([N+](=O)[O-])cc2)s1 : what was it?
Found: N

Lookup: Assay outcome for CC1CCC(C(C)(C)[N+](C)(C)C)CC1 (stereo unspecified) : what was it?
Found: N

Lookup: Assay outcome for OC(CCN1CCCCC1)(c1ccccc1)c1ccccc1 : what was it?
Found: N

Lookup: Assay outcome for Cc1ccc(N2C(=O)c3cccc4c(N)c(S(=O)(=O)O)cc(c34)C2=O)cc1 : what was it?
Found: N

Lookup: Assay outcome for Cc1ccc(C2CCCCC2)cc1Br : what was it?
Found: N

Lookup: Assay outcome for CSc1nsc(N)n1 : what was it?
Found: N
